The following molecules are listed with their measured pIC50 values.
assay-target: human neutrophil elastase (Homo sapiens, UniProt P08246)
Construct: purchased Serva Electrophoresis, Germany
Sequence (P08246 30-267): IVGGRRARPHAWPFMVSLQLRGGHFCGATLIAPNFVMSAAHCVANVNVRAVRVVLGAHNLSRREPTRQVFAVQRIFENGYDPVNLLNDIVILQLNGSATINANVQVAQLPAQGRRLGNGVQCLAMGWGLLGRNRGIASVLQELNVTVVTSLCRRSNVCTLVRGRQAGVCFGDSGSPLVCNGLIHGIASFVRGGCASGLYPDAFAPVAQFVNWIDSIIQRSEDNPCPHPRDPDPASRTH
assay-comment: Inhibition of human neutrophil elastase (MeOSuc-AAPV-pNA hydrolysis)
Format: biochemical
assay-conditions: 10 nM enzyme, 0.3 mM substrate, 37° C., pH 8; read-out: Human neutrophil elastase (hNE) IC50
Non-standard residues stand in square brackets, D forms with d. Residues, ends and D or L forms follow the SMILES beside them. Gly(octyl) = CCCCCCCC[C@H](N)C(=O)O; hTyr = N[C@@H](CCc1ccc(O)cc1)C(=O)O; Aad = N[C@@H](CCCC(=O)O)C(=O)O
In plain terms, pIC50 is the concentration in mol/L turned into minus its base-10 logarithm.

Worked examples, 2 molecules total:
>>> test_value("CC[C@H](C)[C@@H]1NC(=O)[C@H](CO)NC(=O)[C@H](C)NC(=O)[C@H]([C@@H](C)O)NC(=O)[C@H](CCc2ccc(O)cc2)NC(=O)[C@H](CCCNC(=N)N)NC(=O)[C@@H]2CCCN2C(=O)[C@H]2CCCN2C(=O)[C@H](Cc2ccc(O)cc2)NC(=O)[C@H](CCCCN)NC(=O)[C@H](CCC(N)=O)NC(=O)[C@@H]2CCCN2C(=O)[C@@H]2CCCN2C1=O [Example 5] (cyclo(R[hTyr]TASIPPQKY[dP]P))")
7.90
>>> test_value("CC[C@H](C)[C@@H]1NC(=O)[C@H](CO)NC(=O)[C@H](C)NC(=O)[C@H]([C@@H](C)O)NC(=O)[C@H](CCC(=O)O)NC(=O)[C@H](CCCNC(=N)N)NC(=O)[C@@H]2CCCN2C(=O)[C@H]2CCCN2C(=O)[C@H](CCCC(N)=O)NC(=O)[C@H](CCCCN)NC(=O)[C@H](Cc2ccc(O)cc2)NC(=O)[C@@H]2CCCN2C(=O)[C@@H]2CCCN2C1=O [Example 12] (cyclo(RETASIPPYK[Aad](NH2)[dP]P))")
8.00

Query: Record lookup: for human neutrophil elastase (Homo sapiens, UniProt P08246), what pIC50 belongs to CCCCCCCC[C@@H]1NC(=O)[C@@H]2CCCN2C(=O)[C@H]2CCCN2C(=O)[C@H](CO)NC(=O)[C@H](CCCCN)NC(=O)[C@H](CCC(N)=O)NC(=O)[C@@H]2CCCN2C(=O)[C@@H]2CCCN2C(=O)[C@H]([C@@H](C)CC)NC(=O)[C@H](CO)NC(=O)[C@H](C)NC(=O)[C@H]([C@@H](C)O)NC(=O)[C@H](CCC(=O)O)NC1=O [Example 3] (cyclo([Gly(octyl)]ETASIPPQKS[dP]P)) ?
Response: 8.26

====

Each record here notes measured hNE/hPr3 selectivity.
assay-target: human proteinase 3 (Homo sapiens, UniProt P24158)
Construct: purchased Elastin Products Company, USA
Sequence (P24158 28-248): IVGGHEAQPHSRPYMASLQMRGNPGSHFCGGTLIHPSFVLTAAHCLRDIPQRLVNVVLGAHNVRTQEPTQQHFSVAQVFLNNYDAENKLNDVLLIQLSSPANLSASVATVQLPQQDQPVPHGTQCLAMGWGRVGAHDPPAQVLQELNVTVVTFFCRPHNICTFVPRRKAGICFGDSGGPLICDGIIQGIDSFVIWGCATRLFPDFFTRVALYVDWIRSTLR
assay-comment: Inhibition of human proteinase 3 (Boc-Ala-Ala-Nva-SBzl)
Type: biochemical
assay-conditions: ratio of hPr3 IC50 to hNE IC50
Non-standard residues stand in square brackets, D forms with d. Residues, ends and D or L forms follow the SMILES beside them. *: point of attachment. Gly(octyl) = CCCCCCCC[C@H](N)C(=O)O; hTyr = N[C@@H](CCc1ccc(O)cc1)C(=O)O; hArg = N=C(N)NCCCC[C@H](N)C(=O)O; NHPhenethyl = c1ccc(CCN*)cc1; hLeu = CC(C)CC[C@H](N)C(=O)O

In the examples that follow, each entry is paired with its recorded hNE/hPr3 selectivity.
>>> test_value("CC[C@H](C)[C@@H]1NC(=O)[C@H](CO)NC(=O)[C@H](C)NC(=O)[C@H]([C@@H](C)O)NC(=O)[C@H](CCc2ccc(O)cc2)NC(=O)[C@H](CCCNC(=N)N)NC(=O)[C@@H]2CCCN2C(=O)[C@H]2CCCN2C(=O)[C@H](Cc2ccc(O)cc2)NC(=O)[C@H](CCCCN)NC(=O)[C@H](CCC(N)=O)NC(=O)[C@@H]2CCCN2C(=O)[C@@H]2CCCN2C1=O [Example 5] (cyclo(R[hTyr]TASIPPQKY[dP]P))")
135
>>> test_value("CC[C@H](C)[C@@H]1NC(=O)[C@H](CO)NC(=O)[C@H](C)NC(=O)[C@H]([C@@H](C)O)NC(=O)[C@H](CCC(=O)O)NC(=O)[C@H](CCCNC(=N)N)NC(=O)[C@@H]2CCCN2C(=O)[C@H]2CCCN2C(=O)[C@H](Cc2c[nH]cn2)NC(=O)[C@H](CCCCN)NC(=O)[C@H](Cc2ccc(O)cc2)NC(=O)[C@@H]2CCCN2C(=O)[C@@H]2CCCN2C1=O [Example 14] (cyclo(RETASIPPYKH[dP]P))")
3823
>>> test_value("CC[C@H](C)[C@@H]1NC(=O)[C@H](CO)NC(=O)[C@H](C)NC(=O)[C@H]([C@@H](C)O)NC(=O)[C@H](C(C)C)NC(=O)[C@H](CCCNC(=N)N)NC(=O)[C@@H]2CCCN2C(=O)[C@H]2CCCN2C(=O)[C@H]([C@@H](C)O)NC(=O)[C@H](CCCCN)NC(=O)[C@H](CCC(N)=O)NC(=O)[C@@H]2CCCN2C(=O)[C@@H]2CCCN2C1=O [Example 16] (cyclo(RVTASIPPQKT[dP]P))")
">3788"
>>> test_value("CC[C@H](C)[C@@H]1NC(=O)[C@H](CO)NC(=O)[C@H](C)NC(=O)[C@H]([C@@H](C)O)NC(=O)[C@H](CCC(=O)O)NC(=O)[C@H](CCCCNC(=N)N)NC(=O)[C@@H]2CCCN2C(=O)[C@H]2CCCN2C(=O)[C@H]([C@@H](C)O)NC(=O)[C@H](CCCCN)NC(=O)[C@H](CCC(N)=O)NC(=O)[C@@H]2CCCN2C(=O)[C@@H]2CCCN2C1=O [Example 9] (cyclo([hArg]ETASIPPQKT[dP]P))")
2958
>>> test_value("CC[C@H](C)[C@@H]1NC(=O)[C@H](CO)NC(=O)[C@H](C)NC(=O)[C@H]([C@@H](C)O)NC(=O)[C@H](CCC(=O)O)NC(=O)[C@H](CCCNC(=N)N)NC(=O)[C@@H]2CCCN2C(=O)[C@H]2CCCN2C(=O)[C@H]([C@@H](C)O)NC(=O)[C@H](CCCCN)NC(=O)[C@H](Cc2ccc(O)cc2)NC(=O)[C@@H]2CCCN2C(=O)[C@@H]2CCCN2C1=O [Example 13] (cyclo(RETASIPPYKT[dP]P))")
">3268"

Query: hNE/hPr3 selectivity for CCCCCCCC[C@@H]1NC(=O)[C@@H]2CCCN2C(=O)[C@H]2CCCN2C(=O)[C@H]([C@@H](C)O)NC(=O)[C@H](CCCCN)NC(=O)[C@H](CCC(N)=O)NC(=O)[C@@H]2CCCN2C(=O)[C@@H]2CCCN2C(=O)[C@H]([C@@H](C)CC)NC(=O)[C@H](CO)NC(=O)[C@H](C)NC(=O)[C@H]([C@@H](C)O)NC(=O)[C@H](CCC(=O)O)NC1=O [Example 4] (cyclo([Gly(octyl)]ETASIPPQKT[dP]P)) ?
Response: 272

Query: If you can, please state the reported hNE/hPr3 selectivity value of CC[C@H](C)[C@@H]1NC(=O)[C@H](CO)NC(=O)[C@H](C)NC(=O)[C@H]([C@@H](C)O)NC(=O)[C@H](CCC(=O)O)NC(=O)[C@H](CCCNC(=N)N)NC(=O)[C@@H]2CCCN2C(=O)[C@H]2CCCN2C(=O)[C@H]([C@@H](C)O)NC(=O)[C@H](CCCCN)NC(=O)[C@H](CCC(N)=O)NC(=O)[C@@H]2CCCN2C(=O)[C@@H]2CCCN2C1=O [Example 11] (cyclo(RETASIPPQKT[dP]P)) .
Response: >8000

Query: GET /values?readout=hNE/hPr3 selectivity&item= CC[C@H](C)[C@@H]1NC(=O)[C@H](CO)NC(=O)[C@H](C)NC(=O)[C@H]([C@@H](C)O)NC(=O)[C@H](CCC(=O)O)NC(=O)[C@H](CCC(=O)NCCc2ccccc2)NC(=O)[C@@H]2CCCN2C(=O)[C@H]2CCCN2C(=O)[C@H](Cc2ccc(O)cc2)NC(=O)[C@H](CCCCN)NC(=O)[C@H](CCC(N)=O)NC(=O)[C@@H]2CCCN2C(=O)[C@@H]2CCCN2C1=O [Example 15] (cyclo(E(NHPhenethyl)ETASIPPQKY[dP]P))
Response: 360

Query: I would be grateful if you could share the reported hNE/hPr3 selectivity for CC[C@H](C)[C@@H]1NC(=O)[C@H](CO)NC(=O)[C@H](C)NC(=O)[C@H]([C@@H](C)O)NC(=O)[C@H](CCc2ccc(O)cc2)NC(=O)[C@H](CCCNC(=N)N)NC(=O)[C@@H]2CCCN2C(=O)[C@H]2CCCN2C(=O)[C@H]([C@@H](C)O)NC(=O)[C@H](CCCCN)NC(=O)[C@H](CCC(N)=O)NC(=O)[C@@H]2CCCN2C(=O)[C@@H]2CCCN2C1=O [Example 17] (cyclo(R[hTyr]TASIPPQKT[dP]P)) .
Response: 5378

Query: Recorded hNE/hPr3 selectivity of CC[C@H](C)[C@@H]1NC(=O)[C@H](CO)NC(=O)[C@H](C)NC(=O)[C@H]([C@@H](C)O)NC(=O)[C@H](CCC(=O)O)NC(=O)[C@H](CCCNC(=N)N)NC(=O)[C@@H]2CCCN2C(=O)[C@H]2CCCN2C(=O)[C@H](CCC(C)C)NC(=O)[C@H](CCCCN)NC(=O)[C@H](CCC(N)=O)NC(=O)[C@@H]2CCCN2C(=O)[C@@H]2CCCN2C1=O [Example 10] (cyclo(RETASIPPQK[hLeu][dP]P)) , please.
Response: >3333
